- Tested on: B16
- Experiment description: Cytotoxicity against mouse B16 cells assessed as inhibition of cell proliferation incubated for 48 hrs by MTS assay
- Type: functional, cell-based
- Experimental parameters: B16, 48 h
Measured quantity: IC50 (µM)
One number for each entry, in µM.

Measured IC50, "C/C=C/CC/C=C/c1cc(OC)cc(=O)o1" : 38.5
